tested on: HL-60; experiment: NCI tumour cell line growth inhibition, 48 h
Activity calls are given as the source filed them. Rule as the data show it: active = GI50 up to about 1.1 µM and inactive = higher.
Listed molecules paired with reported GI50

Examples with their reported GI50 follow.
| Molecule | Subject of test | GI50 |
| --- | --- | --- |
| O=S(=O)(c1ccccc1)C1CN2OC1(S(=O)(=O)c1ccccc1)CC2c1ccc(Br)cc1 (centres undefined) | HL-60 | > 100 µM (inactive) |
| Nc1nc2[nH]c(=O)cnc2c(=O)[nH]1 | HL-60 | > 125 µM (inactive) |
| CCOC(=O)NC(=O)c1cn(CCCCCCOC(=O)NCCCCCCNC(=O)OCCCCCCn2cc(C(=O)NC(=O)OCC)c(=O)[nH]c2=O)c(=O)[nH]c1=O | HL-60 | > 100 µM (inactive) |

Value wanted: GI50 (HL-60) of entry `CCCCCCCCCCCCCC(=S)N/C=C/OC`
16.1 µM (inactive)

Value wanted: GI50 (HL-60) of entry `CC(C)(C)OC(=O)CN1CCNCCN(CC(=O)OC(C)(C)C)CCNCC1`
36.2 µM (inactive)

Value wanted: GI50 (HL-60) of entry Cc1c2c(OCC(O)CN3CCN(c4ccccc4)CC3)nn(C)c(=O)c2c(C)n1-c1ccccc1 (centres undefined)
20.1 µM (inactive)

Value wanted: GI50 (HL-60) of entry `Cc1nn(-c2nc3ccccc3s2)c2c1C(=O)c1ccccc1-2`
> 100 µM (inactive)

Value wanted: GI50 (HL-60) of entry `CCOC(=O)c1nc2ccc(C(F)(F)F)cc2nc1Oc1ccc(F)cc1`
> 100 µM (inactive)

Value wanted: GI50 (HL-60) of entry `Cc1cc(O)cc(O)c1/N=N/c1ccc([N+](=O)[O-])cc1`
5.16 µM (inactive)

Data credit: ChEMBL document CHEMBL1201862
